The measured values listed here are drawn from patent US20250074980A1.

# assayed_system: T1, His-tagged CEACAM1 (human, UniProt P13688 35-428)
# T1 construct: 45 kDa SPR analyte; also called CEACAM1-HIS; CEACAM1 analyte
# T1 sequence: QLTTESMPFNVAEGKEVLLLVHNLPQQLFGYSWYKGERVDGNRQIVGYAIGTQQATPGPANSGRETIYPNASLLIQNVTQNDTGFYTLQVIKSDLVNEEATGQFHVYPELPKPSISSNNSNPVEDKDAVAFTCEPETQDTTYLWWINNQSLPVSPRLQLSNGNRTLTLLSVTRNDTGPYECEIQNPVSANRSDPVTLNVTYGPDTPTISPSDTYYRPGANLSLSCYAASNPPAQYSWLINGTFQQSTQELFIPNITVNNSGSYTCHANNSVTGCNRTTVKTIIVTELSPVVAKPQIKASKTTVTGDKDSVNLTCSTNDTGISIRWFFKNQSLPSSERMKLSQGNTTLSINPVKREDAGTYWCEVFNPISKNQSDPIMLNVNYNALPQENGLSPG
# assay: SPR single-cycle, supernatant IgG captured
binders and their reported koff
API: value field is a number in s⁻¹; no unit string.

Past entries and their recorded results:
{"binder": "8H3_9C2/CP08F05 (antibody, IgG4, V domains shown, IgG4 (S241P), kappa; also called 8H3_9C2/CPO08_F05) VH: EVQLLESGGGLVQPGGSLRLSCAASEFTFSDHAMSWVRQAPGKGLEWVATISSGGTYTYYPDSVKGRFTISRDNSKNTLYLQMNSLKAEDTAMYYCARHGFDYFPYWFAHWGQGTLVTVSS VL: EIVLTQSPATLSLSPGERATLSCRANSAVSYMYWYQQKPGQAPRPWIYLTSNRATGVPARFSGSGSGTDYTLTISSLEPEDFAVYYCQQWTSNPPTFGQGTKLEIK", "units_text": "s⁻¹", "koff": 0.0061}
{"binder": "VH1/Vκ8 S29A (antibody, IgG4, V domains shown, IgG4 (S241P), kappa; also called Parent; Parent (VH1/Vκ8 S29A)) VH: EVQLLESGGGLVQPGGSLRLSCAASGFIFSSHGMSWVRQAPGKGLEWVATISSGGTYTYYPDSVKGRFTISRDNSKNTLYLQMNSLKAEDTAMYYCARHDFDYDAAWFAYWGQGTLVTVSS VL: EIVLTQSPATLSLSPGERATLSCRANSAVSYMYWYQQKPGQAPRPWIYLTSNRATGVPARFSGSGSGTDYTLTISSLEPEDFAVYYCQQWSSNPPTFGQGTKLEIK", "units_text": "s⁻¹", "koff": 0.053}

## Task Look up koff of 8H3_9C2/Vκ8 S29A (antibody, IgG4, V domains shown, IgG4 (S241P), kappa) VH: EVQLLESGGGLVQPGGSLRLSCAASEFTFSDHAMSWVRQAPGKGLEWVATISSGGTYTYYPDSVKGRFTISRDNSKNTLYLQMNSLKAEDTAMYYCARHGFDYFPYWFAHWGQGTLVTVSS VL: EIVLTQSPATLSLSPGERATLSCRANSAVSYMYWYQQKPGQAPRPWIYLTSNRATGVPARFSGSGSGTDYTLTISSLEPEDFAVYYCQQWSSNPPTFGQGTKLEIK and report it.
## Result 0.0071
